Data provenance: patent US8129371B2

Target: PI3K (Homo sapiens)
Construct: PI3 Kinase γ IC50; other: PI3 Kinase γ; other: PI3 Kinase γ isoform, fluorescence polarization
Sequence (P48736 whole entry, canonical isoform): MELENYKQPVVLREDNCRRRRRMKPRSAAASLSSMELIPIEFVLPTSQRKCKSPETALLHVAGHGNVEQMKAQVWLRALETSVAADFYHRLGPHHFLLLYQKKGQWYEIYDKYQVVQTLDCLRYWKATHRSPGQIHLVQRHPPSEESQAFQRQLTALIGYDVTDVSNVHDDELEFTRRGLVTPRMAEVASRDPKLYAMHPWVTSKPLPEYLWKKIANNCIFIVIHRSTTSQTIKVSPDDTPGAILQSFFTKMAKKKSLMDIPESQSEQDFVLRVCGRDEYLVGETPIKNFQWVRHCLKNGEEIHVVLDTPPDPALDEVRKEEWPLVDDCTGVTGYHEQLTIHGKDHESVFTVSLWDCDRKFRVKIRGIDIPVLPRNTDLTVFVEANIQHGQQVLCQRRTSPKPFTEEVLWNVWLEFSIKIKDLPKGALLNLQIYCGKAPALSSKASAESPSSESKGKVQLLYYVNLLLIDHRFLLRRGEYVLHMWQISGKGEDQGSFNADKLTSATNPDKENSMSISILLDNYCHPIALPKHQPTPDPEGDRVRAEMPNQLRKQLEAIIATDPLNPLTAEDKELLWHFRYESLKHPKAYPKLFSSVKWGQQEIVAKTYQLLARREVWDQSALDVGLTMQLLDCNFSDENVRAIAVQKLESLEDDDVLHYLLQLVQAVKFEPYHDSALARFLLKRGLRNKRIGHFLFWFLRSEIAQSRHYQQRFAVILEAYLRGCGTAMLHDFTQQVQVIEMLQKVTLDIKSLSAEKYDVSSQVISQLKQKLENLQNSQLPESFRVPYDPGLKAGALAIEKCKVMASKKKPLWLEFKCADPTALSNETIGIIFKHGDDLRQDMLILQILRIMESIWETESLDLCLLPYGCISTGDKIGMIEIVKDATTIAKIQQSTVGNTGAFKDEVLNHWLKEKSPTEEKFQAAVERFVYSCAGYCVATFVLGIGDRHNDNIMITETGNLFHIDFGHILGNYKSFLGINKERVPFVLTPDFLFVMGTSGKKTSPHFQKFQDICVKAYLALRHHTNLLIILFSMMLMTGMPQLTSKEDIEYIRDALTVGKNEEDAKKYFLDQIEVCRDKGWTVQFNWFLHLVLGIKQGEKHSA
Experiment: Fluorescence polarization assay for PI3K
Type: biochemical
observed_property: IC50

Task: Please report the recorded IC50 for CN(C)c1cccc(OC(=O)Nc2ccc(-c3nc(N4CC5CCC(C4)O5)c4cnn(CC(F)(F)F)c4n3)cc2)c1 .
Output: > 10 µM

* * *

Biological target: Human mTOR (FLAG-TOR) (Homo sapiens, UniProt P42345)
Construct: FLAG
Test: Human mTOR kinase assay with purified enzyme, DELFIA format
Assay type: biochemical
Details: purified human mTOR enzyme, DELFIA format
observed_property: IC50 (nM)
Kindly answer with a numeric value in nM, unit omitted.

Task: Please report the recorded IC50 for COC1CCC(n2ncc3c(N4CC5CCC(C4)O5)nc(-c4ccc(NC(=O)NC5CC5)cc4)nc32)CC1 (centres unmarked) [Example 302] .
Output: 0.3

Task: Please report the recorded IC50 for CCn1nc(N2CCCC2)c2c(N3CC4CCC(C3)O4)nc(-c3ccc(NC(=O)Nc4cccnc4)cc3)nc21 [Example 346] .
Output: 10.9

Task: Please report the recorded IC50 for CNC(=O)Nc1ccc(-c2nc(N3CC4CCC(C3)O4)c3cnn(C4CCC(OC)CC4)c3n2)cc1 (centres unmarked) [Example 383] .
Output: 0.53

Task: Please report the recorded IC50 for O=C(Nc1ccncc1)Nc1ccc(-c2nc(N3CC4CCC(C3)O4)c3sccc3n2)cc1 [Example 413] .
Output: 0.39

Task: Please report the recorded IC50 for CN1CCN(Cc2cc3nc(-c4ccc(NC(=O)Nc5ccc(C(N)=O)cc5)cc4)nc(N4CC5CCC(C4)O5)c3s2)CC1 [Example 428] .
Output: 1.5

Task: Please report the recorded IC50 for COC(=O)N1CCC(n2ncc3c(N4C5CCC4COC5)nc(-c4ccc(NC(=O)Nc5ccc(CN(C)C)cc5)cc4)nc32)CC1 [Example 366] .
Output: 0.795

Task: Please report the recorded IC50 for COC1CCC(n2ncc3c(N4CC5CCC(C4)O5)nc(-c4ccc(NC(=O)Nc5ccc(C(=O)NN6CCCC6)cc5)cc4)nc32)CC1 (centres unmarked) [Example 307] .
Output: 0.145

Task: Please report the recorded IC50 for COCC(COC)n1ncc2c(N3CC4CCC(C3)O4)nc(-c3ccc(NC(=O)Nc4ccc(N5CCN(C)CC5)cc4)cc3)nc21 [Example 327] .
Output: 3.75

Task: Please report the recorded IC50 for CS(=O)(=O)N1CCN(Cc2cc3nc(-c4ccc(NC(=O)Nc5ccccc5)cc4)nc(N4CC5CCC(C4)O5)c3s2)CC1 [Example 432] .
Output: 1.3

Task: Please report the recorded IC50 for COCC(COC)n1ncc2c(N3CC4CCC(C3)O4)nc(-c3ccc(NC(=O)NC4CC4)cc3)nc21 [Example 321] .
Output: 10.4

Task: Please report the recorded IC50 for CNC(=O)Nc1ccc(-c2nc(N3CC4CCC(C3)O4)c3sccc3n2)cc1 [Example 406] .
Output: 0.94

Task: Please report the recorded IC50 for CNC(=O)Nc1ccc(-c2nc(N3CC4CCC(C3)O4)c3cnn(C4COCOC4)c3n2)cc1 [Example 385] .
Output: 9.95

Task: Please report the recorded IC50 for O=C(Nc1ccc(-c2nc(N3CC4CCC(C3)O4)c3cnn(C4CCC5(CCCO5)CC4)c3n2)cc1)Nc1ccc(N2CCNCC2)cc1 (single isomer, unassigned) [Example 314] .
Output: 0.455

Task: Please report the recorded IC50 for CN1CCN(Cc2cc3nc(-c4ccc(NC(=O)NN(C)C)cc4)nc(N4CC5CCC(C4)O5)c3s2)CC1 [Example 425] .
Output: 545
